# ASSAY_SYSTEM: T1, human TIGIT-Fc (human, UniProt Q495A1 22-141, limits assumed)
# T1 construct: not shown: Fc; not described
# T1 sequence (looked up): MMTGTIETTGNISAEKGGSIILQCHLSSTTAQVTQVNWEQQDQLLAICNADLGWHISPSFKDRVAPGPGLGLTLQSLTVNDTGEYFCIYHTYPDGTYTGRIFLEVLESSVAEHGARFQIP
# EXPERIMENT: CD155 competition ELISA, single point; note: test concentration or dose not given here
Each entry gets F if its OD (450 nm) stays under 0.6 OD, and T if its OD (450 nm) is 0.6 OD or above.

TIGIT-SC184 (Fc fusion, VHH-Fc) VHH: EVQLVESGGGLVQPGGSLRLSCAASGFTFSPSWMGWFRQAPGKEREWVASVLRGGYTWYADSVKGRFTISADNSKNTAYLQMNSLKPEDTAVYYCTTDRGYNWNYDWGQGTLVTVSS | F
TIGIT-SC141 (Fc fusion, VHH-Fc) VHH: EVQLVESGGGLVQPGGSLRLSCAASGNAFSSSVMGWFRQAPGKEREFVAGIWRSGSLKAYADSVKGRFTISADNSKNTAYLQMNSLRPEDTAVYYCARAYVGMTTVTFDHWGQGTLVTVSS | T

Prompt: Can TIGIT-SC57 (Fc fusion, VHH-Fc) VHH: EVQLVESGGGLVQPGGSLRLSCAASGNTFSGGFMGWFRQAPGKEREWVASVLRGGYTWYADSVKGRFTISADNSKNTAYLQMNSLKPEDTAVYYCTTYRGWGQGTLVTVSS be said to have OD (450 nm) at or above 0.6 OD?
Completion: F

Prompt: Can TIGIT-SC86 (Fc fusion, VHH-Fc) VHH: EVQLVESGGGLVQPGGSLRLSCAASGIIASDSAMGWFRQAPGKEREFVAAIRWSGKETWYADSVKGRFTISADNSKNTAYLQMNSLKPEDTAVYYCARWGGVTFGGVYPLEYWGQGTLVTVSS be said to have OD (450 nm) at or above 0.6 OD?
Completion: T

Prompt: Can TIGIT-SC8 (Fc fusion, VHH-Fc) VHH: EVQLVESGGGLVQPGGSLRLSCAASGFAFSSYAMGWFRQAPGKEREFVARITWNGGSAYYADSVKGRFTISADNSKNTAYLQMNSLKPEDTAVYYCAAGATGWFDPWGQGTLVTVSS be said to have OD (450 nm) at or above 0.6 OD?
Completion: T
